B1: SLC35F2 (parent)
chain: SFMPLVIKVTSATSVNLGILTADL

Variants of: B1
procedure_summary: protein stability index of a GFP-peptide fusion (GPS, HEK-293T) (PSI 1-6); higher = more stable;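 further: lentivirally expressed fusions sorted by FACS into six bins by GFP to DsRed ratio, PSI derived from sequencing read proportions per bin multiplied by bin number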
conditions_used: c terminus: a fixed tail appended
Assign protein stability index to each entry below.
One number for each entry.

F2P | 2.47
T10F | 3.67
A12Q | 2.82

Lab note: each variant below needs its protein stability index filled in.
1. T10D
2. L24K
3. A12G
4. A22Y
5. P4G
6. V6Y
7. V6Q

Data returned:
3.46
2.4
3.33
3.41
2.32
3.21
1.86

Please give protein stability index, item by item, for the list that follows.
1. V9I
2. T21R
3. I7N
4. I19Q
5. I19H
6. A22W

Data returned:
3.17
3.24
2.21
2.64
2.39
3.55
